Each recorded value in this set is attributed to the supplement of paper PMC12137928.

Listed here are compounds together with their documented IC50 cell viability.
system: HCT116; details: 72 h; ICRF193 0 nM
Counter-ions that a name gives are not always drawn.

What IC50 cell viability value was documented for this compound, `Cc1cccc(C)c1OCC(=O)N[C@@H](Cc1ccccc1)[C@@H](O)C[C@H](Cc1ccccc1)NC(=O)[C@H](C(C)C)N1CCCNC1=O` ?
18.3 µM

Next record, please: CC(CC(c1ccccc1)c1ccccc1)NC(C)(C)C (stereo unspecified) [Terodiline hydrochloride]
> 45.8 µM

Next record, please: CC(=O)c1ccc2c(c1)N(CCCN(C)C)c1ccccc1S2 [Acetopromazine maleate]
> 45.8 µM

Next record, please: CN1CCc2c(c3ccccc3n2Cc2ccccc2)C1 [MEBHYDROLIN]
> 45.8 µM

Next record, please: COc1ccccc1OCC(O)COC(N)=O (stereo unspecified)
> 45.8 µM

Next record, please: CNCCc1ccccn1 [Betahistine mesylate]
> 45.8 µM

Next record, please: `Cc1nnc2n1-c1sc(Br)cc1C(c1ccccc1Cl)=NC2`
> 45.8 µM

Next record, please: `NC(=O)N/N=C/c1ccc([N+](=O)[O-])o1`
> 45.8 µM

Next record, please: `CNCCCCOc1ccccc1Cc1ccccc1`
20.6 µM

Next record, please: NS(=O)(=O)c1cc2c(cc1Cl)NC(Cc1ccccc1)NS2(=O)=O (stereo unspecified) [Benzylhydrochlorothiazide]
> 45.8 µM

Next record, please: `C/C(=C\c1csc(C)n1)[C@@H]1C[C@@H]2O[C@]2(C)CCC[C@H](C)[C@H](O)[C@@H](C)C(=O)C(C)(C)[C@@H](O)CC(=O)O1`
0.00517 µM

---

tested on: HCT116; conditions: 72 h; ICRF193 0 nM
Structures can show the parent of a compound that is named as a salt.
OUTCOME MEASURE: IC50 cell viability

// worked examples, IC50 cell viability included
{"MOLECULE": "NC(=O)OCCCc1ccccc1 [Phenprobamate]", "TARGET ENTITY": "HCT116", "ASSAY VALUE": "> 45.8 µM"}
{"MOLECULE": "CCCCCCNC(=O)n1cc(F)c(=O)[nH]c1=O", "TARGET ENTITY": "HCT116", "ASSAY VALUE": "10.3 µM"}

What IC50 cell viability value was documented for this molecule, CC1=CCC(O)(C(C)C)CC1 (centres undefined) ?
> 45.8 µM

Next record, please: CCC[C@@H]1C[C@@H](C(=O)N[C@@H]([C@H]2O[C@H](SC)[C@H](O)[C@@H](O)[C@H]2O)[C@@H](C)O)N(C)C1 [Lincomycin hydrochloride]
> 45.8 µM

---

test system: HCT116; experiment: efficacy (maximum % inhibition of viability vs DMSO); higher = more cytotoxic; conditions: 72 h; ICRF193 200 nM
Listed here are compounds together with their documented efficacy.
Express it in %; write the number only.

// worked examples, efficacy included
{"COMPOUND": "C/C=C(/C)C(=O)O[C@H]1C(C)=C[C@]23C(=O)[C@@H](C=C(CO)[C@@H](O)[C@]12O)[C@H]1[C@@H](C[C@H]3C)C1(C)C [Ingenol mebutate]", "OUTCOME MEASURE": "efficacy", "ASSAY VALUE": 60.3}
{"COMPOUND": "O=C(O)c1c(Cl)c(Cl)c(Cl)c(Cl)c1-c1c2cc(I)c(=O)c(I)c-2oc2c(I)c(O)c(I)cc12 [Rose Bengal disodium]", "OUTCOME MEASURE": "efficacy", "ASSAY VALUE": 62.4}
{"COMPOUND": "CN(C)C(=S)SC(=S)N(C)C [Tetramethylthiuram monosulfide]", "OUTCOME MEASURE": "efficacy", "ASSAY VALUE": 40.7}

What efficacy value was documented for this compound, CO[C@H]1C[C@@H]2CC[C@@H](C)[C@@](O)(O2)C(=O)C(=O)N2CCCC[C@H]2C(=O)O[C@H]([C@H](C)C[C@@H]2CC[C@@H](O)[C@H](OC)C2)CC(=O)[C@H](C)/C=C(\C)[C@@H](O)[C@@H](OC)C(=O)[C@H](C)C[C@H](C)/C=C/C=C/C=C/1C [Sirolimus] ?
88.6

Next record, please: CN1CCc2cccc3c2[C@H]1Cc1ccc(O)c(O)c1-3 [Apomorphine]
107
